// data source = patent US4812465A

Tested on: Candida albicans
Experiment notes: In vitro determination of minimum inhibitory concentration (MIC), serial dilution
Format: cell-based
Experimental conditions: 336 h, pH 6, Candida albicans, pH 6.0, 22° C., 14 days, read-out: MIC C.alb
Measured property: MIC (µg/mL)

• Clc1ccc(SCCCNC(Cn2cncn2)c2ccc(Cl)cc2)cc1 (stereo not shown) [Compound 99] = 6.25
• Clc1ccc(SCCCNC(Cn2cncn2)c2ccc(Cl)cc2Cl)cc1 (stereo not shown) [Compound 95] = 12.5
• Clc1ccc(C(Cn2cncn2)NCCCSc2ccc(Br)cc2)c(Cl)c1 (stereo not shown) [Compound 104] = 25
• Clc1ccc(OCCCCNC(Cn2cncn2)c2ccc(Cl)cc2Cl)cc1 (stereo not shown) [Compound 126] = 25
• Clc1ccc(SCCCCCNC(Cn2ccnc2)c2ccc(Cl)cc2Cl)cc1 (stereo not shown) [Compound 132] = 6.25
• Clc1ccc(C(Cn2cncn2)NCCCOc2c(Cl)cccc2Cl)c(Cl)c1 (stereo not shown) [Compound 72] = 3.12
• Cc1cc(Cl)ccc1OCCCNC(Cn1cncn1)c1ccc(Cl)cc1Cl (stereo not shown) [Compound 68] = 50
• Clc1ccc(C(Cn2ccnc2)NCCSc2ccc(Br)cc2)c(Cl)c1 (stereo not shown) [Compound 37] = 6.25

I = CN(CCCOc1ccc(I)cc1)C(Cn1ccnc1)c1ccc(Cl)cc1Cl (stereo not shown) [Compound 65]
II = Clc1ccc(OCCNC(Cn2cncn2)c2ccc(Cl)cc2Cl)cc1 (stereo not shown) [Compound 14]
III = Clc1ccc(C(Cn2ccnc2)NCCSc2ccc3ccccc3c2)c(Cl)c1 (stereo not shown) [Compound 40]
IV = COc1ccc(SCCNC(Cn2ccnc2)c2ccc(Cl)cc2Cl)cc1 (stereo not shown) [Compound 39]
Request: Put the items in order so that reported MIC rises from first to last. Give the labels in the order specified.
Response: I, III, II, IV
(I: 3.12 µg/mL, III: 6.25 µg/mL, II: 12.5 µg/mL, IV: 25 µg/mL)
